Target: T1, human IL-15Rα (human, UniProt Q13261 31-205, limits assumed)
T1 construct: also called hIL-15Rα; IL-15 receptor alpha
T1 sequence (Q13261 31-205 limits assumed): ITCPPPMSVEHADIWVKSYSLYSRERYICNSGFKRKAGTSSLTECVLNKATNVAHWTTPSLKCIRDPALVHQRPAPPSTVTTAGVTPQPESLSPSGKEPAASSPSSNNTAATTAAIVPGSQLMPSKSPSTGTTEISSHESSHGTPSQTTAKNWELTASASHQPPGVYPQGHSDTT
Test: SPR, steady state
recordedMetric: Kd (nM)

* hIL-15 V49R/H32S (ligand) NWVNVISDLKKIEDLIQSMHIDATLYTESDVSPSCKVTAMKCFLLELQRISLESGDASIHDTVENLIILANNSLSSNGNVTESGCKECEELEEKNIKEFLQSFVHIVQMFINTGGGGSGHHHHHHHHGGGLNDIFEAQKIEWHE | 110
* hIL-15 V49R/N4E (ligand) NWVEVISDLKKIEDLIQSMHIDATLYTESDVHPSCKVTAMKCFLLELQRISLESGDASIHDTVENLIILANNSLSSNGNVTESGCKECEELEEKNIKEFLQSFVHIVQMFINTGGGGSGHHHHHHHHGGGLNDIFEAQKIEWHE | 79.8
* hIL-15 V49R/D30Q (ligand) NWVNVISDLKKIEDLIQSMHIDATLYTESQVHPSCKVTAMKCFLLELQRISLESGDASIHDTVENLIILANNSLSSNGNVTESGCKECEELEEKNIKEFLQSFVHIVQMFINTGGGGSGHHHHHHHHGGGLNDIFEAQKIEWHE | 111
* hIL-15 V49R/E64D (ligand) NWVNVISDLKKIEDLIQSMHIDATLYTESDVHPSCKVTAMKCFLLELQRISLESGDASIHDTVDNLIILANNSLSSNGNVTESGCKECEELEEKNIKEFLQSFVHIVQMFINTGGGGSGHHHHHHHHGGGLNDIFEAQKIEWHE | 108
* hIL-15 V49R/E64K (ligand) NWVNVISDLKKIEDLIQSMHIDATLYTESDVHPSCKVTAMKCFLLELQRISLESGDASIHDTVKNLIILANNSLSSNGNVTESGCKECEELEEKNIKEFLQSFVHIVQMFINTGGGGSGHHHHHHHHGGGLNDIFEAQKIEWHE | 164
* hIL-15 V49R/D8N (ligand) NWVNVISNLKKIEDLIQSMHIDATLYTESDVHPSCKVTAMKCFLLELQRISLESGDASIHDTVENLIILANNSLSSNGNVTESGCKECEELEEKNIKEFLQSFVHIVQMFINTGGGGSGHHHHHHHHGGGLNDIFEAQKIEWHE | 119
* hIL-15 V49R/L69D (ligand) NWVNVISDLKKIEDLIQSMHIDATLYTESDVHPSCKVTAMKCFLLELQRISLESGDASIHDTVENLIIDANNSLSSNGNVTESGCKECEELEEKNIKEFLQSFVHIVQMFINTGGGGSGHHHHHHHHGGGLNDIFEAQKIEWHE | 65.6
